The measured values listed here are drawn from PubChem BioAssay (NCI).

tested on: A498 renal; assay: NCI tumour cell line growth inhibition, 48 h; in the data active = GI50 below about 0.43 µM; inactive = the rest
Your reply should match one of these outcome classes. active, inactive

Here are 6 compounds together with their reported answers.
compound | category_label
COc1nc(=O)n(C2C=CC(=O)O2)cc1F (centres undefined) | inactive
C=CC12CCN(CC1)C(C(O)c1ccnc3ccc(OC)cc13)C2 (centres undefined) | inactive
COC(=O)/C=C/c1cc(OC(C)=O)c2c(c1)C(C(=O)OC)C(c1ccc(OC(C)=O)c(OC(C)=O)c1)O2 (centres undefined) | inactive
NC(=O)c1cc(I)ccc1NC(=O)/C=C/c1ccccc1 | inactive
CO[C@@H]1CC[C@]2(C)OC[C@H](C)[C@@H]3C[C@@H](C)[C@@H](OC(C)=O)[C@@H]4[C@H]3[C@@H]2O[C@H]4C[C@@]1(C)O | inactive
COc1cc2c(cc1OCCCN1CCN(CCCOc3cc4c(cc3OC)C(=O)N3CC(F)(F)C[C@H]3C=N4)CC1)N=C[C@@H]1CC(F)(F)CN1C2=O | inactive

Exercise: Recorded call for `COc1ccc(CNc2c3ccccc3nc3ccccc23)cc1F` ?
Solution: inactive

Exercise: Recorded call for COc1cc2c(cc1OCCCCCN1CCN(c3ncnc4ccccc34)CC1)N=CC1CCCN1C2=O (centres undefined) ?
Solution: active

Exercise: Recorded call for `Nc1c(C(=O)Nc2ccccn2)sc2nc3c(cc12)C(=O)CCC3` ?
Solution: active

----------
system: MDA-MB-435; experiment: NCI tumour cell line growth inhibition, 48 h
Please respond with reported TGI for every item in the list.

Known results for compounds:
compound | TGI
CCOC(=O)CC/C(=N/Nc1ccc(Cl)cc1[N+](=O)[O-])C(=O)OCC | > 100 µM
CCCCCCn1c(-c2ccc(C(=O)O/N=C(\N)c3ccc4c(c3)OCO4)cc2)nc(-c2ccccc2)c1-c1ccccc1 | 3.35 µM
CCOC(=O)C(NC(=O)CC)(N1CCN(c2cc3c(cc2F)c(=O)c(C(=O)O)cn3C2CC2)CC1)C(F)(F)F (centres undefined) | > 100 µM
CSC[C@H](NC(=O)COc1cccc2cnccc12)C(=O)NC(Cc1ccccc1)C(O)C(=O)N1CSC[C@H]1C(=O)NC(C)(C)C (some centres undefined) | > 100 µM
NC(=O)c1cc(I)ccc1NC(=O)/C=C/c1ccccc1 | 0.445 µM
CC[C@]1(O)C[C@H]2CN(CCc3c([nH]c4ccccc34)C(C(=O)OC)(c3cc4c(cc3OC)N(C)[C@H]3[C@@](O)(C(=O)OC)[C@H](OC(C)=O)[C@]5(CC)[C@@H]6C[C@@H]6CN6CC[C@]43[C@@H]65)C2)C1 (some centres undefined) | 0.00219 µM
C=CCn1c(=O)ccn(/C(=C/C(=O)OCC)C(=O)OCC)c1=O | 26.2 µM
CCOc1c(OC)cc(-c2nc3n(n2)C(=O)C(CC)S3)cc1OC (centres undefined) | > 10 µM

Please give TGI, item by item, for the list that follows.
1. COc1c(C)c(OCC=C(C)C)cc(CO)c1CO
2. Cc1ccc2c(c1)c1ccc3c(c1n2C)C(=O)C=CC3=O

Solution:
> 100 µM
5.15 µM

----------
Please respond with reported TGI for every item in the list.
system: XF 498 CNS; experiment: NCI tumour cell line growth inhibition, 48 h

Known results for compounds:
compound | result
O=C(NN1C(=O)CS(=O)(=O)C1c1ccc(C(F)(F)F)cc1)c1ccncc1 (stereo not given) | > 100 µM
CCCCCCCCc1cc2c(O)c(c1)Cc1cc(CCCCCCCC)cc(c1O)Cc1cc(CCCCCCCC)cc(c1O)Cc1cc(CCCCCCCC)cc(c1O)Cc1cc(CCCCCCCC)cc(c1O)Cc1cc(CCCCCCCC)cc(c1O)C2 | > 100 µM
CN1Nc2ccccc2CC1=O | > 100 µM
CCOC(=O)/C=C1/C(CCCOCc2ccccc2)C2CCCC23CC2(CCN13)OCCO2 (stereo not given) | 26.8 µM
O=c1[nH]c(=O)n(C2CC(O)C(CO)O2)cc1OS(=O)(=O)C(F)(F)F (stereo not given) | > 100 µM

Please give TGI, item by item, for the list that follows.
1. COC(=N)c1csc(C2OC(CO)C(O)C2O)n1 (stereo not given)
2. CC(C)C1CN(C(=O)OCc2ccccc2)C2N1C(=O)C2(C)OCc1ccccc1 (stereo not given)

Solution:
["> 100 µM", "33.5 µM"]
